Cited source for all entries: the supplement of paper PMC12042874

Procedure Text: amyloid nucleation score (Sup35N fusion, yeast selection) (log enrichment); library NNK2; higher = more nucleation; inactive = no reads after selection;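 also: zero at mode of non-aggregating sequences after 7 days selection at 30°C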
# maps each entry to its amyloid nucleation score
Keep it simple and answer with nothing but the number.

The examples below pair each entry with its known result.
RRLGYPYFTR    -0.743
ISVCITILSYVRNECWFRGD    -0.432
SHAIHRCVGWFGVWTGTLFI    3.69

Notebook: "FNVEVRV" , amyloid nucleation score read as -0.379

Consider "RLEPYCILSRV" . Its measured amyloid nucleation score is -1.75

// amyloid nucleation score lookup, substance = "KRTWFERLWSSSNRVLGCLC" , result: 4.27

// sample "SFLDYRSLTVMFVAGQSTVR" , its amyloid nucleation score was -0.645

----------
Procedure Text: amyloid nucleation score (Sup35N fusion, yeast selection) (log enrichment); library NNK3; higher = more nucleation; inactive = no reads after selection
Outcome Measure: amyloid nucleation score

Consider the following illustrative entries.
VLIYDVCCALNLCCGFRTFG    1.77
NHMCSVYRWQSLERVVCKGI    inactive
DVAWHRSACEYLFM    inactive
DYKRSMGFGWLTFVPYLAGN    inactive
ITGVFCTSHVRFNINFKLWE    1.97
NIMYLIWWILGKRHVCNPWE    -0.805
RVGTMLHGDWAYCHR    inactive
LSIVQD    -0.413

"LINKFRWPTPNECLVPVFQD" has a reported amyloid nucleation score of inactive

// amyloid nucleation score lookup, substance = "HCDLGESFTALYSFHAVLML" , result: inactive

----------
Procedure Text: amyloid nucleation score (Sup35N fusion, yeast selection) (log enrichment); library NNK2; higher = more nucleation; inactive = no reads after selection
Measured amyloid nucleation score of individual entries
No unit in the answer, please; the number alone is enough.

Reference set, count: 5
GLIGCAMSVVPHEELCVRTC    1.07
VIQNYL    -0.624
SCHVFFVTIEGNASSANGHR    8.14
VLNCNRYFRCSANNIEASES    0.27
YACFDCIIIQAWKFSIGTGL    3.7

The reported amyloid nucleation score of the substance "NNSWQINIYNGVTRLIRVRA" was 4.7

Memo: "TCRLRFGCEYGQTFSCVSWA" , reported amyloid nucleation score: 0.531

Entry under test: "RNSVFPILLAYDASDFVARK" . Its amyloid nucleation score was -0.494

Quick note, amyloid nucleation score for "RECLRLDGGPMNWV" landed at 0.192

For reference, reported amyloid nucleation score for "YYLSNPRGVHISIYREHNMS" stands at 6.39

----------
Procedure Text: amyloid nucleation score (Sup35N fusion, yeast selection) (log enrichment); library NNK1; higher = more nucleation; inactive = no reads after selection
Outcome Measure: amyloid nucleation score

ISGGLTGKWVFVLGDWWVMF    -0.206
RNKSGSGYKLFVSGELAQQM    inactive
LTSCASLWEDRVVLSCLPGG    inactive
EMTCAWDGNELLFKQRRTIR    inactive
CRCFGRFLVITSI    inactive
MWAAGDNHYSNKVLSLAMVV    0.501

Let us move to another entry and its amyloid nucleation score.
Memo: "SKCIWDFGYVSPWAISS" , reported amyloid nucleation score: inactive

----------
As shown below, each of these substances has a reported amyloid nucleation score value.
Procedure Text: amyloid nucleation score (Sup35N fusion, yeast selection) (log enrichment); library NNK1; higher = more nucleation; inactive = no reads after selection
Please reply with the value in numeric form only.

RVYLFNYICGGLDFFLRPTV    5.37
IIVTSKQSTTYTHLVWERSG    -0.629
TFTPWKVDVLSRYRMQGCAQ    0.556
TSHSETSEAFRRFSAPFLAN    0.497

For record "LAWWLCGNLVTWYIITDGQW" the listed amyloid nucleation score is 1.04

amyloid nucleation score reading for "GRARVSIRSWSRSWSVGRVL" : 0.309

substance "PRSANCMCDYDRTAM" , amyloid nucleation score observed: 0.316

Entry "RYTFVITVYKIDDSSEMSWV" ; amyloid nucleation score = 0.82

Lab note: "KLETYYGAFNFNWFLSLNGD" gave amyloid nucleation score of 5.08
